Each recorded value in this set is attributed to ChEMBL document CHEMBL3585344.

test system: Trichoderma viride; assay: Antifungal activity against Trichoderma viride IAM 5061 after 72 hrs by microdilution method; type: functional; conditions: IAM 5061, 72 h
measurementLabel: MIC (µM)

Some compounds with recorded MIC:
compound	measValue
c1ccc(-c2ccc(C(c3ccccc3)n3ccnc3)cc2)cc1 (configuration not stated) [BIFONAZOLE]	640
CNc1nc(C)c(C2=NN(c3ccccc3)C(c3ccc(F)cc3)C2)s1 (configuration not stated)	109
CNc1nc(C)c(C2=NN(c3ccccc3)C(c3ccc(OC)cc3)C2)s1 (configuration not stated)	132
CNc1nc(C)c(C2=NN(c3ccccc3)C(c3ccc([N+](=O)[O-])cc3)C2)s1 (configuration not stated)	127
CNc1nc(C)c(-c2cc(-c3ccccc3)nc(N)n2)s1	25.2
Cc1nc(-c2ccccc2)sc1-c1cc(-c2ccccc2)nc(N)n1	14.5
Cc1nc(-c2ccccc2)sc1C1=NN(c2ccccc2)C(c2ccccc2)C1 (configuration not stated)	126
CNc1nc(C)c(C2=NN(c3ccccc3)C(c3ccccc3)C2)s1 (configuration not stated)	287
CNc1nc(C)c(C2=NN(c3ccccc3)C(c3ccc(Cl)cc3)C2)s1 (configuration not stated)	131
CC(=O)N1CCN(c2ccc(OCC3COC(Cn4ccnc4)(c4ccc(Cl)cc4Cl)O3)cc2)CC1 (configuration not stated) [KETOCONAZOLE]	4750

P: CNc1nc(C)c(C2=NN(c3ccccc3)C(c3ccc(C)cc3)C2)s1 (configuration not stated)
Q: CCNc1nc(C)c(C2=NN(c3ccccc3)C(c3ccccc3)C2)s1 (configuration not stated)
For the pair P and Q , which entry has the numerically smaller recorded MIC? Your choice should be expressed through its label.
P

----------
system: Salmonella typhimurium; experiment: Bactericidal activity against Salmonella typhimurium ATCC 13311 after 72 hrs by microdilution method; assay type: functional, Salmonella enterica subsp. enterica serovar Typhimurium
measurementLabel: MBC99.5 (×10⁻² umol/ml)
The reply should contain only the number, in ×10⁻² umol/ml.

The reported MBC99.5 of the compound CNc1nc(C)c(C2=NN(c3ccccc3)C(c3ccc([N+](=O)[O-])cc3)C2)s1 (configuration not stated) was 25.4

----------
system: Bacillus cereus; assay: Bactericidal activity against Bacillus cereus clinical isolate after 72 hrs by microdilution method; format: functional
Each entry below carries its reported MBC99.5.
The reply should contain only the number, in ×10⁻² umol/ml.

Some molecules with recorded MBC99.5:
molecule	MBC99.5 (×10⁻² umol/ml)
CC1(C)S[C@@H]2[C@H](NC(=O)[C@H](N)c3ccccc3)C(=O)N2[C@H]1C(=O)O [AMPICILLIN]	37.2
CNc1nc(C)c(C2=NN(c3ccccc3)C(c3ccccc3)C2)s1 (configuration not stated)	28.7

The reported MBC99.5 of the molecule CNc1nc(C)c(C2=NN(c3ccccc3)C(c3ccc(C)cc3)C2)s1 (configuration not stated) was 27.6

The reported MBC99.5 of the molecule Cc1nc(-c2ccccc2)sc1-c1cc(-c2ccccc2)nc(N)n1 was 40.6

The reported MBC99.5 of the molecule CNc1nc(C)c(C2=NN(c3ccccc3)C(c3ccc(Cl)cc3)C2)s1 (configuration not stated) was 31.4

----------
test system: Micrococcus flavus; assay: Antibacterial activity against Micrococcus flavus ATCC 10240 after 24 hrs by microdilution method; assay type: functional; conditions: ATCC 10240, 24 h
measurementLabel: MIC (µM)

compound	MIC (µM)
CNc1nc(C)c(C2=NN(c3ccccc3)C(c3ccc(Cl)cc3)C2)s1 (centres undefined)	105

a: CCNc1nc(C)c(C2=NN(c3ccccc3)C(c3ccccc3)C2)s1 (centres undefined)
b: CNc1nc(C)c(C2=NN(c3ccccc3)C(c3ccc(F)cc3)C2)s1 (centres undefined)
c: CNc1nc(C)c(-c2cc(-c3ccccc3)nc(N)n2)s1
Hey, quick one: sort these by MIC, low to high? To answer, arrange all of the labels according to the requested order.
c, b, a

----------
tested on: Talaromyces funiculosus; assay: Fungicidal activity against Penicillium funiculosum ATCC 36839 after 72 hrs by microdilution method; assay type: functional
measurementLabel: MFC99.5 (×10⁻² umol/ml)
The reply should contain only the number, in ×10⁻² umol/ml.

Some molecules with recorded MFC99.5:
molecule	measValue
Cc1nc(-c2ccccc2)sc1C1=NN(c2ccccc2)C(c2ccccc2)C1 (configuration not stated)	32.2
CNc1nc(C)c(C2=NN(c3ccccc3)C(c3ccc(F)cc3)C2)s1 (configuration not stated)	27.3
CNc1nc(C)c(C2=NN(c3ccccc3)C(c3ccc([N+](=O)[O-])cc3)C2)s1 (configuration not stated)	32.2

Then this molecule:
Considering Cc1nc(-c2ccccc2)sc1-c1cc(-c2ccccc2)nc(N)n1 , its MFC99.5 with Talaromyces funiculosus was recorded as 34.8

----------
tested on: Enterococcus faecalis; assay: Antibacterial activity against Enterococcus faecalis ATCC 7080 isolated from human after 24 hrs by microdilution method; assay type: functional; details: ATCC 7080, 24 h
measurementLabel: MIC (µM)

Some molecules with recorded MIC:
molecule	unitName	measValue
Cc1nc(-c2ccccc2)sc1-c1cc(-c2ccccc2)nc(N)n1	µM	290
CNc1nc(C)c(C2=NN(c3ccccc3)C(c3ccc(C)cc3)C2)s1 (stereo unspecified)	µM	442
CN[C@@H]1[C@H](O[C@H]2[C@H](O[C@H]3[C@H](O)[C@@H](O)[C@H](N=C(N)N)[C@@H](O)[C@@H]3N=C(N)N)O[C@@H](C)[C@]2(O)C=O)O[C@@H](CO)[C@H](O)[C@H]1O [STREPTOMYCIN]	µM	43
CNc1nc(C)c(C2=NN(c3ccccc3)C(c3ccc(F)cc3)C2)s1 (stereo unspecified)	µM	54.6

P: CC1(C)S[C@@H]2[C@H](NC(=O)[C@H](N)c3ccccc3)C(=O)N2[C@H]1C(=O)O [AMPICILLIN]
Q: CCNc1nc(C)c(C2=NN(c3ccccc3)C(c3ccccc3)C2)s1 (stereo unspecified)
For the pair P and Q , which entry has the numerically smaller recorded MIC? Your choice should be expressed through its label.
Q
(Q: 110 µM, P: 248 µM)

----------
tested on: Micrococcus flavus; experiment: Antibacterial activity against Micrococcus flavus ATCC 10240 after 24 hrs by microdilution method; assay type: functional; details: ATCC 10240, 24 h
measurementLabel: MIC (µM)

P: CNc1nc(C)c(C2=NN(c3ccccc3)C(c3ccccc3)C2)s1 (stereo not drawn)
Q: Cc1nc(-c2ccccc2)sc1-c1cc(-c2ccccc2)nc(N)n1
R: CC1(C)S[C@@H]2[C@H](NC(=O)[C@H](N)c3ccccc3)C(=O)N2[C@H]1C(=O)O
Please sort the molecules listed above from highest to lowest MIC. To answer, arrange all of the labels according to the requested order.
R, P, Q

a: CNc1nc(C)c(C2=NN(c3ccccc3)C(c3ccc([N+](=O)[O-])cc3)C2)s1 (stereo not drawn)
b: CN[C@@H]1[C@H](O[C@H]2[C@H](O[C@H]3[C@H](O)[C@@H](O)[C@H](N=C(N)N)[C@@H](O)[C@@H]3N=C(N)N)O[C@@H](C)[C@]2(O)C=O)O[C@@H](CO)[C@H](O)[C@H]1O
From the recorded data, which exceeds the other in MIC: a or b ? Your choice should be expressed through its label.
a

A: Cc1nc(-c2ccccc2)sc1C1=NN(c2ccccc2)C(c2ccccc2)C1 (stereo not drawn)
B: CNc1nc(C)c(C2=NN(c3ccccc3)C(c3ccc(C)cc3)C2)s1 (stereo not drawn)
For the pair A and B , which entry has the numerically smaller recorded MIC? Your choice should be expressed through its label.
A

----------
test system: Candida albicans; assay: Antifungal activity against Candida albicans ATCC 10231 isolated from human after 72 hrs by microdilution method; type: functional; conditions: ATCC 10231, 72 h
measurementLabel: MIC (µM)

compound	testedOn	measValue
CNc1nc(C)c(-c2cc(-c3ccccc3)nc(N)n2)s1	Candida albicans	33.7
CNc1nc(C)c(C2=NN(c3ccccc3)C(c3ccc([N+](=O)[O-])cc3)C2)s1 (stereo not drawn)	Candida albicans	305
CNc1nc(C)c(C2=NN(c3ccccc3)C(c3ccc(OC)cc3)C2)s1 (stereo not drawn)	Candida albicans	264
CC(=O)N1CCN(c2ccc(OCC3COC(Cn4ccnc4)(c4ccc(Cl)cc4Cl)O3)cc2)CC1 (stereo not drawn)	Candida albicans	376
CNc1nc(C)c(C2=NN(c3ccccc3)C(c3ccc(Cl)cc3)C2)s1 (stereo not drawn)	Candida albicans	157

I: Cc1nc(-c2ccccc2)sc1C1=NN(c2ccccc2)C(c2ccccc2)C1 (stereo not drawn)
II: CNc1nc(C)c(C2=NN(c3ccccc3)C(c3ccccc3)C2)s1 (stereo not drawn)
For the pair I and II , which entry has the numerically smaller recorded MIC? Your choice should be expressed through its label.
II
(II: 172 µM, I: 253 µM)

----------
tested on: Bacillus cereus; test: Antibacterial activity against Bacillus cereus clinical isolate after 24 hrs by microdilution method; assay type: functional
measurementLabel: MIC (µM)

Some molecules with recorded MIC:
molecule	MIC / µM
CCNc1nc(C)c(C2=NN(c3ccccc3)C(c3ccccc3)C2)s1 (configuration not stated)	55.2
CN[C@@H]1[C@H](O[C@H]2[C@H](O[C@H]3[C@H](O)[C@@H](O)[C@H](N=C(N)N)[C@@H](O)[C@@H]3N=C(N)N)O[C@@H](C)[C@]2(O)C=O)O[C@@H](CO)[C@H](O)[C@H]1O	43
CC1(C)S[C@@H]2[C@H](NC(=O)[C@H](N)c3ccccc3)C(=O)N2[C@H]1C(=O)O	248
Cc1nc(-c2ccccc2)sc1-c1cc(-c2ccccc2)nc(N)n1	58
CNc1nc(C)c(C2=NN(c3ccccc3)C(c3ccc([N+](=O)[O-])cc3)C2)s1 (configuration not stated)	203
CNc1nc(C)c(C2=NN(c3ccccc3)C(c3ccc(Cl)cc3)C2)s1 (configuration not stated)	157

1: CNc1nc(C)c(C2=NN(c3ccccc3)C(c3ccc(OC)cc3)C2)s1 (configuration not stated)
2: CNc1nc(C)c(C2=NN(c3ccccc3)C(c3ccc(C)cc3)C2)s1 (configuration not stated)
3: CNc1nc(C)c(-c2cc(-c3ccccc3)nc(N)n2)s1
List these items ordered by MIC, big to small. To answer, arrange all of the labels according to the requested order.
1, 2, 3

1: CNc1nc(C)c(C2=NN(c3ccccc3)C(c3ccc(F)cc3)C2)s1 (configuration not stated)
2: Cc1nc(-c2ccccc2)sc1C1=NN(c2ccccc2)C(c2ccccc2)C1 (configuration not stated)
From the recorded data, which exceeds the other in MIC: 1 or 2 ? Your choice should be expressed through its label.
2
